Recorded DC50 by entry
- System Name: GSPT1 (Homo sapiens, UniProt P15170+Q96SW2)
- Sequence (P15170 whole entry, one chain of several): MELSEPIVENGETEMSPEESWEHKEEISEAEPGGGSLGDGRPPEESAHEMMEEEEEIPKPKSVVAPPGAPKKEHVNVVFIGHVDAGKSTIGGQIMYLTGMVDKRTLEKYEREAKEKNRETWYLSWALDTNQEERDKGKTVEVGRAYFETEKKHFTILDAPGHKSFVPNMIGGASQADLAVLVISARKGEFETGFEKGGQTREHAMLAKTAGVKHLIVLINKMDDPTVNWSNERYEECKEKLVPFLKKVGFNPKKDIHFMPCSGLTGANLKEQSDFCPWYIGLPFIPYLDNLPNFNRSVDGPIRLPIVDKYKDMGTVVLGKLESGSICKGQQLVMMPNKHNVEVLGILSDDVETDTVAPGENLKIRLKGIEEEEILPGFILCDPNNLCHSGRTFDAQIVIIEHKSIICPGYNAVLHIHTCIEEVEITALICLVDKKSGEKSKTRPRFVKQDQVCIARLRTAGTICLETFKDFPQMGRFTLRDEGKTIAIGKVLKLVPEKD
- Sequence (Q16531 whole entry partner, one chain of several): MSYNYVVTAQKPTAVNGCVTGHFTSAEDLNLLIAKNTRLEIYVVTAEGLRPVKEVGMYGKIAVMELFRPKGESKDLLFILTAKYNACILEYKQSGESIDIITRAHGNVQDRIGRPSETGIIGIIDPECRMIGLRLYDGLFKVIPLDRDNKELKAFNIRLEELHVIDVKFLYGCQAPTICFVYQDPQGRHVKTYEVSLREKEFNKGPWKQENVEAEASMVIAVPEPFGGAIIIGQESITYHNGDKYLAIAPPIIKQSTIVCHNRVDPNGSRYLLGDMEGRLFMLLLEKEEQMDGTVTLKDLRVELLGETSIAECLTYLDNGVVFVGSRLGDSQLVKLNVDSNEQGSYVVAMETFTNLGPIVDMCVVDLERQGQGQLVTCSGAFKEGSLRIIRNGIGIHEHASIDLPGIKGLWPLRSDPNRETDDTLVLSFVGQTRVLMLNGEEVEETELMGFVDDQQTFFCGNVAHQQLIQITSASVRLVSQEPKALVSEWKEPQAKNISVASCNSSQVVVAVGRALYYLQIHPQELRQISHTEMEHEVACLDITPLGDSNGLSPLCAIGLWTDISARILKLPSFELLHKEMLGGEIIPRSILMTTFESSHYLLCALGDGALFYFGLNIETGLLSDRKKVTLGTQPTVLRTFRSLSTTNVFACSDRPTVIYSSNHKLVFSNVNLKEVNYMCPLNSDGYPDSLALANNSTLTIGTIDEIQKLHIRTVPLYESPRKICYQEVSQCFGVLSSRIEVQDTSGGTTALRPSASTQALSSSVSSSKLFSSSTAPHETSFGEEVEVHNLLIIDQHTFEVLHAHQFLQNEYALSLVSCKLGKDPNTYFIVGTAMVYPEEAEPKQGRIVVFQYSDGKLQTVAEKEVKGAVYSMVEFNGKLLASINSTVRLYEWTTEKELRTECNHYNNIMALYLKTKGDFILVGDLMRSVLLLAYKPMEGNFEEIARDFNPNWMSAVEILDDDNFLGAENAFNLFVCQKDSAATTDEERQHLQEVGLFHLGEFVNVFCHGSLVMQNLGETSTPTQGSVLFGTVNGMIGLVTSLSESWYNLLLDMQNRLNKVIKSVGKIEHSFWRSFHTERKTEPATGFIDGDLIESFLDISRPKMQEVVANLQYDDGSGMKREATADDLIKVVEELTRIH
- Measurement Description: Immunofluorescence assay for GSPT1 degradation in CAL-Si cells
- Assay type: cell-based
- Set-up: CAL-Si cells were purchased from DSMZ (cat. Number ACC302); host or cells: CAL-Si (CAL-51) cells
- Experimental Setup: 6 hours treatment, read-out: Code: activity for GSPT1 degradation (DC50)

INSERT INTO assay_data (molecule, measurement_type, recorded_measurement) VALUES
  ('Cc1c(Cl)cc(NC(=O)COc2ccc3c(c2)C(=O)N(C2CCC(=O)NC2=O)C3)cc1CN1CCOCC1 (stereo not drawn)', 'DC50', '> 0.3 µM'),
  ('Cc1c(Cl)cc(NC(=O)CCc2ccc3c(c2)C(=O)N(C2CCC(=O)NC2=O)C3)cc1CN1CCOCC1 (stereo not drawn)', 'DC50', '≤ 0.03 µM');

Next molecule, DC50 to be filled in.
The molecule listed as CCc1ncc(NC(=O)CCc2ccc3c(c2)C(=O)N(C2CCC(=O)NC2=O)C3)cc1C (stereo not drawn) shows DC50 equal to 0.03 to 0.3 µM

====

- System Name: GSPT1 (Homo sapiens, UniProt P15170+Q96SW2)
- Measurement Description: Immunofluorescence assay for GSPT1 degradation in CAL-Si cells
- Assay type: cell-based
- Parameters: CAL-Si cells were purchased from DSMZ (cat. Number ACC302); host or cells: CAL-Si (CAL-51) cells
- Experimental Setup: 6 hours treatment, read-out: Code: activity for GSPT1 degradation (DC50)
Measurement Type: DC50

INSERT INTO measurements (compound, measurement_type, recorded_measurement) VALUES
  ('O=C1CCC(N2Cc3ccc(CCC(=O)N4CCN(c5ccccc5)CC4)cc3C2=O)C(=O)N1 (stereo not shown)', 'DC50', '> 300 nM');

The compound listed as Cc1c(Cl)cc(NC(=O)CCc2ccc3c(c2)C(=O)N(C2CCC(=O)NC2=O)C3)cc1OC1CCNC1 (stereo not shown) shows DC50 equal to > 300 nM

====

Recorded IC50 by entry
- System Name: Full length wild-type cereblon CRBN (Homo sapiens, UniProt Q96SW2)
- Construct: Full length wild-type cereblon CRBN (80.0 nM, 10 μL) was incubated in assay buffer
- Sequence (Q96SW2 whole entry): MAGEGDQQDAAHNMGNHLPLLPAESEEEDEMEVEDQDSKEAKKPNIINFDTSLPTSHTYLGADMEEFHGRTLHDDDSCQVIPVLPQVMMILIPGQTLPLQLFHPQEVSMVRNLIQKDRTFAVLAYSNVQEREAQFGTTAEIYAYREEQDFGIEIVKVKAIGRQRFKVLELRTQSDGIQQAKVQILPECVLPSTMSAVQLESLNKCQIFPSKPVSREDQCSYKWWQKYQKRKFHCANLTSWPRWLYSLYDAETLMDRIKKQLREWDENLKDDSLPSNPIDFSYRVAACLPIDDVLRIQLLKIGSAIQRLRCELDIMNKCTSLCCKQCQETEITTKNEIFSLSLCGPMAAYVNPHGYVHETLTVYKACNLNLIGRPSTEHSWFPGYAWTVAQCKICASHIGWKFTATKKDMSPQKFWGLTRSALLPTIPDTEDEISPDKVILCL
- Measurement Description: Fluorescence polarization (FP) assay indicating cereblon binding
- Experimental Setup: cereblon binding, CRBN 80.0 nM, probe 5 nM, FP read after 12 hours; read-out: rFP IC50

Example molecules with recorded IC50:
INSERT INTO results (molecule, system_name, recorded_measurement) VALUES
  ('O=C1CCC(N2Cc3ccc(CCC(=O)Nc4cc(Cl)cc(OC5CCNC5)c4)cc3C2=O)C(=O)N1 (stereo not shown)', 'Full length wild-type cereblon CRBN (Homo sapiens, UniProt Q96SW2)', '0.5 to 1.1 µM'),
  ('CC(C)(C)c1ccc(NC(=O)CCc2ccc3c(c2)C(=O)N(C2CCC(=O)NC2=O)C3)cc1 (stereo not shown)', 'Full length wild-type cereblon CRBN (Homo sapiens, UniProt Q96SW2)', '0.5 to 1.1 µM'),
  ('Cc1ncc(NC(=O)CCc2ccc3c(c2)C(=O)N(C2CCC(=O)NC2=O)C3)cc1OC(F)(F)F (stereo not shown)', 'Full length wild-type cereblon CRBN (Homo sapiens, UniProt Q96SW2)', '1.1 to 1.7 µM'),
  ('O=C1CCC(N2Cc3ccc(CCC(=O)Nc4ccc(F)c(Cl)c4)cc3C2=O)C(=O)N1 (stereo not shown)', 'Full length wild-type cereblon CRBN (Homo sapiens, UniProt Q96SW2)', '0.5 to 1.1 µM'),
  ('CCc1cc(NC(=O)CCc2ccc3c(c2)C(=O)N(C2CCC(=O)NC2=O)C3)sn1 (stereo not shown)', 'Full length wild-type cereblon CRBN (Homo sapiens, UniProt Q96SW2)', '> 1.7 µM'),
  ('Cc1ncc(NC(=O)CCc2ccc3c(c2)C(=O)N(C2CCC(=O)NC2=O)C3)cc1Cl (stereo not shown)', 'Full length wild-type cereblon CRBN (Homo sapiens, UniProt Q96SW2)', '≤ 0.5 µM'),
  ('CN1CCC(Oc2cc(Cl)cc(NC(=O)CCc3ccc4c(c3)C(=O)N(C3CCC(=O)NC3=O)C4)c2)C1 (stereo not shown)', 'Full length wild-type cereblon CRBN (Homo sapiens, UniProt Q96SW2)', '0.5 to 1.1 µM'),
  ('CC(F)(F)c1ccc(NC(=O)CCc2ccc3c(c2)C(=O)N(C2CCC(=O)NC2=O)C3)cc1 (stereo not shown)', 'Full length wild-type cereblon CRBN (Homo sapiens, UniProt Q96SW2)', '≤ 0.5 µM');

The molecule listed as Cc1c(Cl)cc(NC(=O)CCc2ccc3c(c2)C(=O)N(C2CCC(=O)NC2=O)C3)cc1OC1CCN(C)C1 (stereo not shown) shows IC50 equal to ≤ 0.5 µM

The molecule listed as O=C1CCC(N2Cc3ccc(CCC(=O)N4CCCCC4)cc3C2=O)C(=O)N1 (stereo not shown) shows IC50 equal to > 1.7 µM

The molecule listed as O=C1CCC(N2Cc3ccc(CCC(=O)Nc4ccc5c(c4)OCC5)cc3C2=O)C(=O)N1 (stereo not shown) shows IC50 equal to 0.5 to 1.1 µM
